study-target: UniProtKB Q92731
Sequence (Q92731 whole entry, looked up): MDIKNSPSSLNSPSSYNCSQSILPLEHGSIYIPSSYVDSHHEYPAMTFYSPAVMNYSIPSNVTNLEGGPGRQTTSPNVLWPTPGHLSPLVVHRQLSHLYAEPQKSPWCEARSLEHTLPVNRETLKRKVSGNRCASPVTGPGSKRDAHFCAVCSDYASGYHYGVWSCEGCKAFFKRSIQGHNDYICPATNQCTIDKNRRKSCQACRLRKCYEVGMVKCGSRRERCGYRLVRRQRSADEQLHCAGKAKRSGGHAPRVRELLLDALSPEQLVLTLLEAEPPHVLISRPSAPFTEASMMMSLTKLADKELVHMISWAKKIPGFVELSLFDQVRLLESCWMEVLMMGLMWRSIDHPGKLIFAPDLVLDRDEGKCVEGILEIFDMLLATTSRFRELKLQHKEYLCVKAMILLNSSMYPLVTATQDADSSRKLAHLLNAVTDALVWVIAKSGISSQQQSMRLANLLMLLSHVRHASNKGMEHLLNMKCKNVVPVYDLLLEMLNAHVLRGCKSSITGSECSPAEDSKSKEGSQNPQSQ
protocol-details: estrogen receptor beta signaling via PH-RFP translocation – imaging, Cos7 cells, ERbeta-GFP, PH-RFP reporter, orthogonal assay for ERbeta ligand project, confirmation (AID 1218)
conditions-used: PIP3 translocation imaging, at 10 µM, active compounds read high
Inconclusive results are not listed.
outcome-measure: response score

compound	outcome-measure	measured
Cc1cc(C)c2c(c1)[C@@H]1C=CC[C@@H]1[C@H](c1ccc(S(=O)(=O)N3CCOCC3)cc1)N2	response score	100
Cc1cc(-c2nn3c(-c4ccccc4)nnc3s2)c2ccccc2n1	response score	100
O=C(O)c1ccc2c(c1)C1C(Cl)C(Sc3ccccc3[N+](=O)[O-])CC1C(c1cccc([N+](=O)[O-])c1)N2 (stereo not drawn)	response score	0
COc1ccccc1N1CCN(C(=O)c2ccc3nc(-c4ccco4)c(-c4ccco4)nc3c2)CC1	response score	100
Nc1ncnc2c1ncn2C1CCC(CO)C(O)C1 (stereo not drawn)	response score	50
O=C(O)c1cc(Cl)c2c(c1)[C@@H]1C=CC[C@@H]1[C@H](c1ccc(S(=O)(=O)N3CCOCC3)cc1)N2	response score	50
COc1cccc(NS(=O)(=O)c2ccc3c(c2)C2C=CCC2C(c2ccc(C(=O)O)cc2)N3)c1 (stereo not drawn)	response score	50
Brc1cc2c(cc1C1Nc3ccccc3C3C=CCC31)OCO2 (stereo not drawn)	response score	0

From: PubChem BioAssay AID1218
